assay: NCI Yeast Anticancer Drug Screen. Data for the cln2 rad14 strain (AID 165);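 also: 0% = growth equal to vehicle treated cultures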; details: S. cerevisiae cln2 rad14 strain, at 50.0 µM, stronger effect = higher value
Compounds without any hit were thinned out: in the full panel of roughly 79,000, 15% have a hit.
Assign growth inhibition to each entry below.
Give your result in % as a bare value.

In plain terms, c1ccc(N2N=NC3C4CC(C5COCC54)C32)cc1 (stereo not drawn) has a documented growth inhibition of -8.55

In plain terms, `O=C(CCC(=O)Nc1cccc(Cl)c1)CC(=O)c1ccc(F)cc1` has a documented growth inhibition of -23.9

In plain terms, `CCN(c1ccccc1)S(=O)(=O)c1ccc(Oc2ccccc2)c(N)c1` has a documented growth inhibition of 12.5

In plain terms, `C/C(=N\N(C)/C=N/S(C)(=O)=O)c1ccccc1` has a documented growth inhibition of 74.5

In plain terms, CC1CCCC(C)(c2ccccc2)/C1=N\Nc1ccc([N+](=O)[O-])cc1[N+](=O)[O-] (stereo not drawn) has a documented growth inhibition of 18

In plain terms, `O=C(O)c1c(CN2CCOCC2)c(O)c(O)c(O)c1CN1CCOCC1` has a documented growth inhibition of -2.3

In plain terms, `CCCCCCCCNC(=O)/C(=C\c1ccc(/C=C(/NC(=O)c2ccccc2)C(=O)NCCCCCCCC)cc1)NC(=O)c1ccccc1` has a documented growth inhibition of 11.7

In plain terms, COC1CCC(C(C)(C)C)CC1 (stereo not drawn) has a documented growth inhibition of -3.8

###

experiment: NCI Yeast Anticancer Drug Screen. Data for the mlh1 rad18 strain (AID 175); conditions: S. cerevisiae mlh1 rad18 strain growth inhibition; at 50.0 µM; stronger effect = higher value
Compounds without any hit were thinned out: in the full panel of roughly 79,000, 15% have a hit.
Assign growth inhibition to each entry below.
Give your result in % as a bare value.

In plain terms, `COC(=O)c1cccn1C(=O)c1ccc(C)c(OCc2ccccc2)c1[N+](=O)[O-]` has a documented growth inhibition of 8.05

In plain terms, `Cc1ccc(NC(=O)Nc2ccc(Cl)cc2)c(C)c1` has a documented growth inhibition of -0.65

In plain terms, `COc1ccc2nc(-c3ccc(F)cc3)cc(C(=O)O)c2c1` has a documented growth inhibition of 17.1

###

test: NCI Yeast Anticancer Drug Screen. Data for the mec2-1 strain (AID 157); settings: S. cerevisiae mec2-1 strain, at 50.0 µM, stronger effect = higher value
About 79,000 compounds went through this panel and 15% of them were active in at least one assay; those are over-represented in the sample as a whole.
Assign growth inhibition to each entry below.
Give your result in % as a bare value.

In plain terms, CCC1C(C)C=CN1c1nc(N)nc(NS(=O)(=O)c2cc(C)c(Cl)cc2S)n1 (centres undefined) has a documented growth inhibition of 2.5

In plain terms, CC1(C#N)CCCC(c2ccccc2)(c2ccccc2)C1=O (centres undefined) has a documented growth inhibition of 40.5

In plain terms, `CCCn1c(=S)[nH]c2c(=O)n(C)c(=O)n(C)c21` has a documented growth inhibition of -8.9

In plain terms, `COc1ccc(C(=O)OC2CCCC2)cc1` has a documented growth inhibition of 6.95

In plain terms, `Cc1[nH]c(=S)[nH]c(=O)c1CCC(C)C` has a documented growth inhibition of 14.8

In plain terms, `FC1(F)C2(OCCO2)C(F)(F)C12OCCO2` has a documented growth inhibition of -5.25

In plain terms, `CC1(C)OCCS1` has a documented growth inhibition of 18.1

In plain terms, `Cc1cc(=O)n2[nH]nnc2n1` has a documented growth inhibition of 17.6

In plain terms, `CN(C)Cc1cccc(-c2ccccc2)c1O` has a documented growth inhibition of -4.9

In plain terms, O=C(O)C1C2C3CCC(C3)C12 (centres undefined) has a documented growth inhibition of 16.4

In plain terms, `Cn1c([N+](=O)[O-])cnc1COc1ccc(OCc2ncc([N+](=O)[O-])n2C)cc1` has a documented growth inhibition of -20.1

In plain terms, `CC(=O)Nc1ccc(N(C)C)cc1Cl` has a documented growth inhibition of -17.2

In plain terms, `Cc1cc(C)[n+](C)c(/C=C\c2ccccc2Cl)n1` has a documented growth inhibition of -1.7

In plain terms, `COc1cc(C)c(OC)c(C/C=C(\C)CC2=C(CC(C)(C)O)C(=O)[C@]3(C)CCC[C@]3(C)C2)c1` has a documented growth inhibition of 25.8

In plain terms, `CNc1ccc2c(c1)C(=O)c1ccccc1-2` has a documented growth inhibition of 14.4

In plain terms, CN(C)c1ncnc2c1ncn2C1OC(CO)C(N)C1O (centres undefined) has a documented growth inhibition of 3

In plain terms, C[N+]1(C)CC2C3C=C(I)C(C3)C2C1 (centres undefined) has a documented growth inhibition of 17.4

In plain terms, COC(CC(=O)O)CC(C)CC(C)(C)C (centres undefined) has a documented growth inhibition of 15.8

In plain terms, COC(=O)C1CC2(C(=O)OC)CC(C(=O)OC)(CC(C(=O)OC)C2=O)C1=O (centres undefined) has a documented growth inhibition of -0.15

###

Assign growth inhibition to each entry below.
experiment: NCI Yeast Anticancer Drug Screen. Data for the mec2-1 strain (AID 157); details: S. cerevisiae mec2-1 strain, at 50.0 µM, stronger effect = higher value
Compounds without any hit were thinned out: in the full panel of roughly 79,000, 15% have a hit. Calls of active or inactive are those of the source. Rule as the data show it: active = growth inhibition above about 70%; inactive = the rest.

In plain terms, `CCN(CC)c1ccc(N=C2C=C(C(=O)Nc3ccc(C(=O)O)cc3)C(=O)c3ccccc32)c(C)c1` has a documented growth inhibition of -25% (inactive)

In plain terms, `CC(C)(C)N(Cc1ccccc1)C(=O)Nc1ccccc1` has a documented growth inhibition of 3.95% (inactive)

In plain terms, `OC/C=C(\I)CCCOCOCc1ccccc1` has a documented growth inhibition of -4.35% (inactive)

In plain terms, `CCN(CC)Cc1cc(C)c(O)c(N=Nc2cc(OC)c(N=Nc3ccc([N+](=O)[O-])cc3)cc2OC)c1C` has a documented growth inhibition of 12.4% (inactive)

In plain terms, `CCCCCCCC/C(C=O)=C\c1ccc(C)cc1` has a documented growth inhibition of 33.8% (inactive)

In plain terms, `Cc1ccc(S(=O)(=O)C(C#N)(Cc2c[nH]c3ccccc23)Cc2c[nH]c3ccccc23)cc1` has a documented growth inhibition of 9.25% (inactive)

In plain terms, `O=C1c2ccccc2C(=O)c2c(Cl)cccc21` has a documented growth inhibition of 4.7% (inactive)

###

Assign growth inhibition to each entry below.
assay: NCI Yeast Anticancer Drug Screen. Data for the sgs1 mgt1 strain (AID 161);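 also: 0% = growth of cultures given vehicle only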; settings: S. cerevisiae sgs1 mgt1 strain, at 50.0 µM, stronger effect = higher value
This is part of a sample that, as a whole, favours compounds with a hit. Of some 79,000 tested, about 15% had one in any assay.
Give your result in % as a bare value.

In plain terms, `c1ccc2c(c1)Cc1c(Cc3csc4ccccc34)ccc3cccc-2c13` has a documented growth inhibition of -4.1

In plain terms, N=C(N)SC1CC2CC1C1C=CCC21 (stereo not drawn) has a documented growth inhibition of 16.4

In plain terms, NCCCCC(N)C(=O)NCCNc1ccc(NCCNC(=O)C(N)CCCCN)c2c1C(=O)c1ccccc1C2=O (stereo not drawn) has a documented growth inhibition of 1.45

###

assay: NCI Yeast Anticancer Drug Screen. Data for the mlh1 rad18 strain (AID 175); conditions: S. cerevisiae mlh1 rad18 strain growth inhibition; at 50.0 µM; stronger effect = higher value
Compounds without any hit were thinned out: in the full panel of roughly 79,000, 15% have a hit.
Assign growth inhibition to each entry below.
Give your result in % as a bare value.

In plain terms, CC1(c2ccncc2)NC(=O)NC1=O (stereo not given) has a documented growth inhibition of 18.6

In plain terms, CN(C)CCC1(C2=CCCC2)CC/C(=C\c2ccccc2)C1=O (stereo not given) has a documented growth inhibition of 2.5

In plain terms, CN1CCN(CC2C(=O)C3CCC2C3)CC1 (stereo not given) has a documented growth inhibition of -10.3

In plain terms, `Cc1ccc([N+](=O)[O-])cc1NC(=O)C(=O)Cc1nc2ccc(C(=O)c3ccccc3)cc2[nH]c1=O` has a documented growth inhibition of -5.7

In plain terms, `CCN(CC)c1ccc2c(C)cc(=O)oc2c1` has a documented growth inhibition of 0.9

In plain terms, CCOC(=O)/C=C/CC1CCNC1 (stereo not given) has a documented growth inhibition of -6

In plain terms, O=CC(NC(=O)OCc1ccccc1)C(O)C(O)C(O)CO (stereo not given) has a documented growth inhibition of -16.9

In plain terms, `Cc1cc(C(C)C)cc(C(C)C)c1` has a documented growth inhibition of 7.95

In plain terms, `O=C(NCc1ccc([N+](=O)[O-])cc1)c1ccccc1` has a documented growth inhibition of 6.7

In plain terms, O=C(O)C12CCCCC1CCCC2 (stereo not given) has a documented growth inhibition of 10.7

In plain terms, COc1cc(C(C)O)c[n+](CCC2CNc3ccccc32)c1 (stereo not given) has a documented growth inhibition of -21.1

In plain terms, `C=CCOC(=O)CC=C` has a documented growth inhibition of 5.3

In plain terms, `Cc1ccc(S(=O)(=O)NN(C)C(=O)c2ccccc2)cc1` has a documented growth inhibition of -9.05

In plain terms, `CN1c2ccccc2Oc2ccc3ccccc3c21` has a documented growth inhibition of 12.8

In plain terms, O=C(NC1CCC(CC2CCCCC2)CC1)c1ccccc1 (stereo not given) has a documented growth inhibition of 19.2

In plain terms, CCCCCCCC(=O)NC(O)C(Cl)(Cl)C(C)Cl (stereo not given) has a documented growth inhibition of 9.35

In plain terms, `O=C(O)c1c(CN2CCOCC2)c(O)c(O)c(O)c1CN1CCOCC1` has a documented growth inhibition of 5.5

In plain terms, `O=c1[nH]c2ccccc2c(O)c1O` has a documented growth inhibition of -5.35

In plain terms, `CCCCNc1ncnc2c1cnn2C` has a documented growth inhibition of -4.3

In plain terms, `CC(C)(CCC(C)(C)c1ccccc1)c1ccccc1` has a documented growth inhibition of -8.25

In plain terms, CCC(C)C(C)O (stereo not given) has a documented growth inhibition of 0.1

In plain terms, `Cc1cc(=O)n(-c2ccc(-c3ccc(-n4c(C)c(C(=O)O)c(C)cc4=O)cc3)cc2)c(C)c1C(=O)O` has a documented growth inhibition of 27.6

In plain terms, `CCOC(=O)C1(F)S(=O)(=O)OCCOS1(=O)=O` has a documented growth inhibition of -9.8

In plain terms, `COc1cccc(N2C(=O)c3c(c4[nH]c5ccccc5c4c4ccc(C(C)(C)C)cc34)C2=O)c1` has a documented growth inhibition of -12.1

In plain terms, NC(=O)CC(NC(=O)OCc1ccccc1)C(N)=O (stereo not given) has a documented growth inhibition of -14.6

In plain terms, COc1ccc(CC2c3cc(OC)c(OC)cc3C=CN2C)cc1OC (stereo not given) has a documented growth inhibition of 2.3

In plain terms, `CCOc1ccccc1NC(=O)CC(C)=O` has a documented growth inhibition of 10.4

In plain terms, `Nc1ccccc1NC1CCN(Cc2ccccc2)CC1` has a documented growth inhibition of 19.1

In plain terms, O=[N+]([O-])c1ccc(C2ON=C(c3ccccc3)N2C23CC4CC(CC(C4)C2)C3)cc1 (stereo not given) has a documented growth inhibition of -28.4

In plain terms, `Cc1cc(C)c2c(=O)cc(-c3cccc(F)c3)[nH]c2n1` has a documented growth inhibition of -26.1

In plain terms, `COc1ccc(CNc2cnc3cc(N)ccc3n2)cc1OC` has a documented growth inhibition of -16.4

In plain terms, CC(O)(COS(=O)(=O)c1ccccc1)c1ccccc1 (stereo not given) has a documented growth inhibition of -8.4

In plain terms, CCOC(=O)NC(CC)c1ccc2oc3ccccc3c2c1 (stereo not given) has a documented growth inhibition of -15.3

In plain terms, `C#CCI` has a documented growth inhibition of 17.5

In plain terms, `O=C(CCCCl)CCCCl` has a documented growth inhibition of 19.1

In plain terms, OC1CCCC2OC2CC1 (stereo not given) has a documented growth inhibition of 13.9

In plain terms, `CC(=N/NC(=S)NCCN1CCCC1)/C(C)=N\NC(=S)NCCN1CCCC1` has a documented growth inhibition of 35.1

In plain terms, C=C1C(=O)OC2C1CCC1(C)CC(Br)C(=O)C(C)C21 (stereo not given) has a documented growth inhibition of -4.65

In plain terms, `Cc1ccc(C)c(NC(=O)CCC(=O)CC(=O)C(C)(C)C)c1` has a documented growth inhibition of 12.7

In plain terms, `Cc1noc(NC2=CC(=O)C(=O)c3ccccc32)c1C` has a documented growth inhibition of 42.7
